study system: GDP-bound KRAS wild-type protein (Homo sapiens, UniProt P01116)
Sequence (P01116 1-188 isoform P01116-2): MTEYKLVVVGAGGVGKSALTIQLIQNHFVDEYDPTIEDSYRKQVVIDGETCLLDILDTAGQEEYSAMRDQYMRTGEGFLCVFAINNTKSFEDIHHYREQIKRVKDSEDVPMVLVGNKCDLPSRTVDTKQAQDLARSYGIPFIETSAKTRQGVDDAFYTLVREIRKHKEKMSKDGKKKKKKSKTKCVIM
test description: Binding to KRAS by surface plasmon resonance (SPR), dissociation constant KD
settings: Single Cycle Kinetics

smiles data	Kd / nM
CCCN(C)C(=O)[C@@H]1CC(=O)N(C)[C@@H](CC(C)C)C(=O)N[C@@H]([C@@H](C)CC)C(=O)N(C)CC(=O)N(C)[C@H]2C/C=C\CCN(C2=O)[C@@H](Cc2ccc(C(F)(F)F)cc2)C(=O)N(C)CC(=O)N[C@@H](CCc2cc(F)c(C(F)(F)F)c(F)c2)C(=O)N2C[C@H](OCC)C[C@H]2C(=O)N[C@]2(C[C@H](OC)C2)C(=O)N(C)[C@@H](C2CCCC2)C(=O)N1C	0.17
CCO[C@@H]1C[C@H]2C(=O)NC3(CC(C)(C)C3)C(=O)N(C)[C@@H](C3CCCC3)C(=O)N(C)[C@H](C(=O)N(C)CC)CC(=O)N(C)[C@@H]([C@H](C)OC)C(=O)N[C@@H]([C@@H](C)CC)C(=O)N(C3CC3)CC(=O)N(C)[C@H]3C/C=C\CCN(C3=O)[C@@H](Cc3ccc(C)cc3)C(=O)N(C)CC(=O)N[C@@H](CCc3ccc(C(F)(F)F)c(OC)c3)C(=O)N2C1	0.81
CCO[C@@H]1C[C@H]2C(=O)NC3(CCCC3)C(=O)N(C)[C@@H](C3CCCC3)C(=O)N(C)[C@H](C(=O)N(C)C)CC(=O)N(C)[C@@H](CC(C)C)C(=O)N[C@@H]([C@@H](C)CC)C(=O)N(C)CC(=O)N(C)[C@H]3C/C(F)=C\CCN(C3=O)[C@@H](Cc3ccc(C)cc3)C(=O)N(C)CC(=O)N[C@@H](CCc3ccc(C(F)(F)F)c(OC)c3)C(=O)N2C1	0.25
C#CC[C@H]1C(=O)N[C@@H]([C@@H](C)CC)C(=O)N(C)CC(=O)N(C)[C@H]2C/C=C\CCN(C2=O)[C@@H](Cc2ccc(C)cc2)C(=O)N(C)CC(=O)N[C@@H](CCc2ccc(C(F)(F)F)c(OC)c2)C(=O)N2C[C@H](OCC)C[C@H]2C(=O)N(C)C2(CCC2)C(=O)N(C)[C@@H](C2CCCC2)C(=O)N(C)[C@H](C(=O)N(C)C)CC(=O)N1C	0.028
CCO[C@@H]1C[C@H]2C(=O)NC3(CC(C)(C)C3)C(=O)N(C)[C@@H](C3CCCC3)C(=O)N(C)[C@H](C(=O)N(C)C)CC(=O)N(C)[C@@H]([C@H](C)OC)C(=O)N[C@@H]([C@@H](C)CC)C(=O)N(C)CC(=O)N(C)[C@H]3C/C=C\CCN(C3=O)[C@@H](Cc3ccc(C(F)(F)F)cc3)C(=O)N(C)CC(=O)N[C@@H](CCc3cc(F)c(C(F)(F)F)c(F)c3)C(=O)N2C1	0.064
CCO[C@@H]1C[C@H]2C(=O)NC3(CCC3)C(=O)N(C)[C@@H](C3CCCC3)C(=O)N(C)[C@H](C(=O)N(C)C)CC(=O)N(C)[C@@H](CC)C(=O)N[C@@H]([C@@H](C)CC)C(=O)N(C)CC(=O)N(C)[C@H]3CCCCCN(C3=O)[C@@H](Cc3ccc(F)c(C)c3)C(=O)N(C)CC(=O)N[C@@H](CCc3cc(F)c(C(F)(F)F)c(F)c3)C(=O)N2C1	0.32
